biological target: Solute carrier organic anion transporter family member 1B3 (Homo sapiens, UniProt Q9NPD5); conditions: chinese hamster, cho, 10 µM
Sequence (Q9NPD5 whole entry): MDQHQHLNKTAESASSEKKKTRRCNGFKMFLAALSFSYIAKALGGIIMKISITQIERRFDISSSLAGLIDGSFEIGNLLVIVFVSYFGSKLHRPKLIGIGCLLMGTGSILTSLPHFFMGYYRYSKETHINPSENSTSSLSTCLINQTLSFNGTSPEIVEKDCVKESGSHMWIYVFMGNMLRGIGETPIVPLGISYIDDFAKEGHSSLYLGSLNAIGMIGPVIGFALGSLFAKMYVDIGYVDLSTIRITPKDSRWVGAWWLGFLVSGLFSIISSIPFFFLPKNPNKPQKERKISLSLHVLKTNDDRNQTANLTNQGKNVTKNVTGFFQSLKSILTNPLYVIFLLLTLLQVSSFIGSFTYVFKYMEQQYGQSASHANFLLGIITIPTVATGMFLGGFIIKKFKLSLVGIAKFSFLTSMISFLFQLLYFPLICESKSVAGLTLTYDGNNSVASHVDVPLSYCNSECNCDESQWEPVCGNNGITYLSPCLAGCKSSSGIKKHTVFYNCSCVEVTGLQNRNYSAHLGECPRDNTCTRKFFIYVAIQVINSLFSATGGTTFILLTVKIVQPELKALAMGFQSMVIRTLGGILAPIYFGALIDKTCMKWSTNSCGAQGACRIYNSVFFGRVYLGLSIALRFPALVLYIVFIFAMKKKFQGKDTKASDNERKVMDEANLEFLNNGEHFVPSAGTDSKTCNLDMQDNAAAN
residual activity for assorted compounds
The reply must contain the numeric value and, after it, the unit.

Here's what some known entries look like.
{"compound": "CC(C)(C)NCC(O)c1cc(Cl)c(N)c(Cl)c1.Cl (configuration not stated) [CLENBUTEROL HYDROCHLORIDE]", "system-under-test": "Solute carrier organic anion transporter family member 1B3 (Homo sapiens, UniProt Q9NPD5)", "experimental-value": "99.43%"}
{"compound": "Cc1nc2ccccn2c(=O)c1CCN1CCC(C(=O)c2ccc(F)cc2)CC1", "system-under-test": "Solute carrier organic anion transporter family member 1B3 (Homo sapiens, UniProt Q9NPD5)", "experimental-value": "102.6%"}
{"compound": "Cc1ccc2cc3c(ccc4ccccc43)c3c2c1CC3", "system-under-test": "Solute carrier organic anion transporter family member 1B3 (Homo sapiens, UniProt Q9NPD5)", "experimental-value": "78.58%"}
{"compound": "COc1cc2c(cc1OC)[C@@H]1Cc3ccc(OC)c(OC)c3CN1CC2 [TETRAHYDROPALMATINE]", "system-under-test": "Solute carrier organic anion transporter family member 1B3 (Homo sapiens, UniProt Q9NPD5)", "experimental-value": "106.9%"}
{"compound": "NC[C@H]1O[C@H](O[C@H]2[C@H](O)[C@@H](O[C@H]3O[C@H](CO)[C@@H](O)[C@H](N)[C@H]3O)[C@H](N)C[C@@H]2N)[C@H](N)C[C@@H]1O", "system-under-test": "Solute carrier organic anion transporter family member 1B3 (Homo sapiens, UniProt Q9NPD5)", "experimental-value": "105.2%"}

Name the recorded residual activity of `O=C(O)c1cc(/N=N/c2ccc(S(=O)(=O)Nc3ccccn3)cc2)ccc1O` , assay system Solute carrier organic anion transporter family member 1B3 (Homo sapiens, UniProt Q9NPD5).
72.91%

Name the recorded residual activity of COC(=O)C[C@H]1C(C)(C)C(OC(C)=O)[C@]2(O)C=C3C4CC(=O)O[C@@H](c5ccoc5)[C@]4(C)CCC3[C@@]1(C)C2=O (some centres not stated) , assay system Solute carrier organic anion transporter family member 1B3 (Homo sapiens, UniProt Q9NPD5).
34.35%

====

molecular target: Solute carrier organic anion transporter family member 1B1 (Homo sapiens); conditions: chinese hamster, cho, 10 µM
Sequence (Q9Y6L6 whole entry): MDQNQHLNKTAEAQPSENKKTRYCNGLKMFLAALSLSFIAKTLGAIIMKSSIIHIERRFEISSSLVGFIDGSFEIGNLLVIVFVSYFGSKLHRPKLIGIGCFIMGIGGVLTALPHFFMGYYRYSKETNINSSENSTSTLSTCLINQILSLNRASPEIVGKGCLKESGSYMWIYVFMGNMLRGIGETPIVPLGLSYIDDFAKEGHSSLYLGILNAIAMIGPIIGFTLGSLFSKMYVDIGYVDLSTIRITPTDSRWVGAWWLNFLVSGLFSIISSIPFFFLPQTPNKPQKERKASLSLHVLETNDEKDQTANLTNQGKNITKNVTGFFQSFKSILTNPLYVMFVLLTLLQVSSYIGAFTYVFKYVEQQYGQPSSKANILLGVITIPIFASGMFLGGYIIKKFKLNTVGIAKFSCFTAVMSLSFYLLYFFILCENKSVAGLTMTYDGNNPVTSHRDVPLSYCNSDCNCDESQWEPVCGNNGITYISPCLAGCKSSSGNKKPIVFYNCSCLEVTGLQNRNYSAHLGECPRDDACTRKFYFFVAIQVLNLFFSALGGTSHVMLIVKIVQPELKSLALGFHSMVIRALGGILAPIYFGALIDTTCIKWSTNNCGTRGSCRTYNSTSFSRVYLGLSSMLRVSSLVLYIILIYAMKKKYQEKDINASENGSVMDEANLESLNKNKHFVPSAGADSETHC
readout: residual activity (%)
Report the figure in % without appending any unit label.

Here's what some known entries look like.
{"compound": "O=C([O-])Cc1ccccc1Nc1c(Cl)cccc1Cl.[Na+] [DICLOFENAC SODIUM]", "system-under-test": "Solute carrier organic anion transporter family member 1B1 (Homo sapiens)", "experimental-value": 110.6}
{"compound": "CN(C)[C@@H]1C(O)=C(C(N)=O)C(=O)[C@@]2(O)C(O)=C3C(=O)c4c(O)cccc4[C@@](C)(O)[C@H]3C[C@@H]12.Cl [TETRACYCLINE HYDROCHLORIDE]", "system-under-test": "Solute carrier organic anion transporter family member 1B1 (Homo sapiens)", "experimental-value": 118.1}
{"compound": "CCOC(=O)C(=O)C1(C(=O)OCC)Oc2cc(OC)cc(OC)c2C(=O)C1c1ccccc1 (configuration not stated)", "system-under-test": "Solute carrier organic anion transporter family member 1B1 (Homo sapiens)", "experimental-value": 117}

Item `NC1(C(=O)O)CCCC1` : provide residual activity
99.09

Item CCC(=O)O[C@]1(C(=O)CCl)[C@@H](C)C[C@H]2[C@@H]3CCC4=CC(=O)C=C[C@]4(C)[C@@]3(F)[C@@H](O)C[C@@]21C [CLOBETASOL PROPIONATE] : provide residual activity
20.25

Item `CC(=O)O[C@@H]1[C@H]2CC[C@H]3[C@@](C)(O)[C@@H]4C[C@H](O)C(C)(C)[C@@]4(O)[C@H](O)C[C@@]13C[C@@]2(C)O` : provide residual activity
79.68

Item CC(C)=CCc1c(O)cc(C)oc1=O [2-ISOPRENYL-3-HYDROXY-5-METHYL-a-PYRONE] : provide residual activity
101.1
